TESTED TARGET: TACE (Homo sapiens, UniProt P78536)
Construct: purchased Immunex
Sequence (P78536 215-824): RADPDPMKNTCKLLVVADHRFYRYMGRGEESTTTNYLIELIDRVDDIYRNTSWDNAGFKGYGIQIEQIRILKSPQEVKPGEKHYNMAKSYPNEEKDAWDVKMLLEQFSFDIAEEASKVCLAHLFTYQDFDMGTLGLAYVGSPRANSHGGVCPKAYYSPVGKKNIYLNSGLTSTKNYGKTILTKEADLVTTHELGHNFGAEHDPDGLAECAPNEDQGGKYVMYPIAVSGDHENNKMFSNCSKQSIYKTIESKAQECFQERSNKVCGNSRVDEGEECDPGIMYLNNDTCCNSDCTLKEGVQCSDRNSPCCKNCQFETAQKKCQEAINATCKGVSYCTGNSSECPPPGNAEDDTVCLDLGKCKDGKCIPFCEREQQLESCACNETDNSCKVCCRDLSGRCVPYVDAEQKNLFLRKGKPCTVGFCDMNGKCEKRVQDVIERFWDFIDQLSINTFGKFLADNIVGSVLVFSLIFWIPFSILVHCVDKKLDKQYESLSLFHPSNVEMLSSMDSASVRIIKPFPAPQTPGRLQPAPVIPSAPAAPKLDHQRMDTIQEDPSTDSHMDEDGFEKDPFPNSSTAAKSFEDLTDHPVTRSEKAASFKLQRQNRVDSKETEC
TEST DESCRIPTION: Procedure for Measuring TACE Inhibition
Format: biochemical
MEASURED PARAMETER: IC50 (nM)

>>> quantitative_readout("COc1ccc(S(=O)(=O)N2Cc3ccccc3N(S(C)(=O)=O)CC2C(=O)NO)cc1 (stereo not shown) [Example 3]")
104
>>> quantitative_readout("COc1ccc(S(=O)(=O)N2Cc3cc(C)ccc3N(C(=O)c3ccccc3-n3cccn3)CC2C(=O)NO)cc1 (stereo not shown) [Example 63]")
446
>>> quantitative_readout("COc1ccc(S(=O)(=O)N2Cc3ccccc3N(C(=O)c3ccccc3)CC2C(=O)NO)cc1 (stereo not shown) [Example 5]")
95
>>> quantitative_readout("COc1ccc(S(=O)(=O)N2Cc3ccccc3N(C(=O)c3ccc(OC)cc3OC)CC2C(=O)NO)cc1 (stereo not shown) [Example 71]")
136

----------
Measured log10(IC50) values are reported for all entries that follow.
TESTED TARGET: TACE (Homo sapiens, UniProt P78536)
Construct: purchased Immunex
TEST DESCRIPTION: Procedure for Measuring TACE Inhibition
Format: biochemical
MEASURED PARAMETER: log10(IC50) (log10 of the value in nM)

>>> quantitative_readout("COc1ccc(S(=O)(=O)N2Cc3ccccc3N(C(=O)C3CCCCC3)CC2C(=O)NO)cc1 (stereo not shown) [Example 57]")
2.50
>>> quantitative_readout("COc1ccc(S(=O)(=O)N2Cc3ccccc3N(C(=O)c3ccc(-n4ccc(C)n4)cc3Cl)CC2C(=O)NO)cc1 (stereo not shown) [Example 66]")
2.17
>>> quantitative_readout("COc1ccc(S(=O)(=O)N2Cc3ccccc3N(C(=O)c3ccc(-c4ccccc4)cc3)CC2C(=O)NO)cc1 (stereo not shown) [Example 15]")
2.30
>>> quantitative_readout("COc1ccc(S(=O)(=O)N2Cc3ccccc3N(C(=O)c3cccnc3)CC2C(=O)NO)cc1 (stereo not shown) [Example 7]")
1.89
>>> quantitative_readout("COc1ccc(S(=O)(=O)N2Cc3ccccc3N(C(=O)COc3ccccc3)CC2C(=O)NO)cc1 (stereo not shown) [Example 58]")
2.19
>>> quantitative_readout("COc1ccc(S(=O)(=O)N2Cc3ccc(Cl)cc3N(C(=O)c3ccc(OC(F)(F)F)cc3)CC2C(=O)NO)cc1 (stereo not shown) [Example 61]")
3.10
>>> quantitative_readout("COc1ccc(S(=O)(=O)N2Cc3ccccc3N(C(=O)c3ccco3)CC2C(=O)NO)cc1 (stereo not shown) [Example 40]")
1.45

----------
TESTED TARGET: TACE (Homo sapiens)
Construct: purchased Immunex
TEST DESCRIPTION: Procedure for Measuring TACE Inhibition
Format: biochemical
MEASURED PARAMETER: IC50 (nM)

>>> quantitative_readout("COc1ccc(S(=O)(=O)N2Cc3ccccc3N(C(=O)C3CC3)CC2C(=O)NO)cc1 (centres unmarked) [Example 55]")
68.5
>>> quantitative_readout("CCOc1ccc(C(=O)N2CC(C(=O)NO)N(S(=O)(=O)c3ccc(OC)cc3)Cc3ccccc32)cc1 (centres unmarked) [Example 65]")
157
>>> quantitative_readout("COCC(=O)N1CC(C(=O)NO)N(S(=O)(=O)c2ccc(OC)cc2)Cc2ccccc21 (centres unmarked) [Example 9]")
95.2
>>> quantitative_readout("COc1ccc(S(=O)(=O)N2Cc3ccccc3N(Cc3ccccc3)CC2C(=O)NO)cc1 (centres unmarked) [Example 67]")
551
>>> quantitative_readout("COc1ccc(S(=O)(=O)N2Cc3ccc(Cl)cc3N(C(=O)c3ccccc3N3CCOCC3)CC2C(=O)NO)cc1 (centres unmarked) [Example 64]")
384
>>> quantitative_readout("COc1ccc(S(=O)(=O)N2Cc3ccccc3N(C(=O)c3ccncc3)CC2C(=O)NO)cc1 (centres unmarked) [Example 13]")
154
>>> quantitative_readout("COCC(=O)N1CC(C(=O)NO)N(S(=O)(=O)c2ccc(OC)cc2)Cc2cc(C)ccc21 (centres unmarked) [Example 59]")
125
>>> quantitative_readout("COc1ccc(S(=O)(=O)N2Cc3cc(C)ccc3N(C(=O)c3ccccc3)CC2C(=O)NO)cc1 (centres unmarked) [Example 60]")
143

----------
TESTED TARGET: UniProtKB P14780
Sequence (P14780 94-707): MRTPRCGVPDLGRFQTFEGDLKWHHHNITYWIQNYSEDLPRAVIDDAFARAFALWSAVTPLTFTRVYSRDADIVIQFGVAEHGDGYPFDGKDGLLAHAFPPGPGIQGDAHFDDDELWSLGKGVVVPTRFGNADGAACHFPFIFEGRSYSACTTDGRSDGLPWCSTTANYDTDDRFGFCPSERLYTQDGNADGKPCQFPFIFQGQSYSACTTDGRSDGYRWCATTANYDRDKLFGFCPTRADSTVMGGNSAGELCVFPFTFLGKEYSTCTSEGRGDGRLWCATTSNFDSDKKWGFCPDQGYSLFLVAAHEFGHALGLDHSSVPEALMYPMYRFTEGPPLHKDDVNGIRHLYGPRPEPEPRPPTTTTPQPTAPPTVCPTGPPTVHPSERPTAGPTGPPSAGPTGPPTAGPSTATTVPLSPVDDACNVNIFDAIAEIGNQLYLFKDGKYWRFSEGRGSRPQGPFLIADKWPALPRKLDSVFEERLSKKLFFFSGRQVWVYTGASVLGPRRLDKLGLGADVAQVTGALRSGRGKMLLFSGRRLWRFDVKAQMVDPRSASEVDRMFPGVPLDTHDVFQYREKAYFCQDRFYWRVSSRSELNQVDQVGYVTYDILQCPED
TEST DESCRIPTION: In Vitro Gelatinase Assay (MMP-9)
Type: biochemical
MEASUREMENT SETUP: human neutrophil gelatinase B
MEASURED PARAMETER: log10 of IC50 (log10 of the value in nM)

>>> quantitative_readout("COc1ccc(S(=O)(=O)N2Cc3ccccc3N(C(=O)C3CCCCC3)CC2C(=O)NO)cc1 (stereo not drawn)")
1.10
>>> quantitative_readout("COc1ccc(S(=O)(=O)N2Cc3ccccc3N(C(=O)c3cc(F)ccc3C)CC2C(=O)NO)cc1 (stereo not drawn)")
0.59
>>> quantitative_readout("COc1ccc(S(=O)(=O)N2Cc3ccccc3N(C(=O)c3ccc(Cl)cc3Cl)CC2C(=O)NO)cc1 (stereo not drawn)")
0.48
>>> quantitative_readout("COc1ccc(S(=O)(=O)N2Cc3cc(C)ccc3N(C(=O)c3ccccc3)CC2C(=O)NO)cc1 (stereo not drawn)")
0.15
>>> quantitative_readout("COCC(=O)N1CC(C(=O)NO)N(S(=O)(=O)c2ccc(OC)cc2)Cc2cc(C)ccc21 (stereo not drawn)")
0.41
>>> quantitative_readout("COc1ccc(S(=O)(=O)N2Cc3ccccc3N(C(=O)c3ccccc3-c3ccccc3)CC2C(=O)NO)cc1 (stereo not drawn)")
1.10
>>> quantitative_readout("COc1ccc(S(=O)(=O)N2Cc3ccccc3N(C(=O)c3ccncc3)CC2C(=O)NO)cc1 (stereo not drawn)")
0.99
>>> quantitative_readout("COc1ccc(S(=O)(=O)N2Cc3cc(C)ccc3N(C(=O)c3ccccc3-n3cccn3)CC2C(=O)NO)cc1 (stereo not drawn)")
0.75
>>> quantitative_readout("COc1ccc(S(=O)(=O)N2Cc3ccccc3N(C(=O)COc3ccccc3)CC2C(=O)NO)cc1 (stereo not drawn)")
0.64
>>> quantitative_readout("COc1ccc(S(=O)(=O)N2CC(C(=O)NO)N(S(=O)(=O)c3ccc(OC)cc3)Cc3ccccc32)cc1 (stereo not drawn)")
1.09
>>> quantitative_readout("COc1ccc(S(=O)(=O)N2Cc3ccccc3N(C(=O)C3CC3)CC2C(=O)NO)cc1 (stereo not drawn)")
0.60
>>> quantitative_readout("COc1ccc(S(=O)(=O)N2Cc3ccccc3N(C(=O)c3cccnc3)CC2C(=O)NO)cc1 (stereo not drawn)")
-0.22
>>> quantitative_readout("CCCS(=O)(=O)N1CC(C(=O)NO)N(S(=O)(=O)c2ccc(OC)cc2)Cc2ccccc21 (stereo not drawn)")
0.85
>>> quantitative_readout("COCC(=O)N1CC(C(=O)NO)N(S(=O)(=O)c2ccc(OC)cc2)Cc2ccccc21 (stereo not drawn)")
0.13
>>> quantitative_readout("COc1ccc(S(=O)(=O)N2Cc3ccccc3N(S(=O)(=O)c3ccc(C)cc3)CC2C(=O)NO)cc1 (stereo not drawn)")
1.15
>>> quantitative_readout("CCOc1ccc(C(=O)N2CC(C(=O)NO)N(S(=O)(=O)c3ccc(OC)cc3)Cc3ccccc32)cc1 (stereo not drawn)")
0.18
>>> quantitative_readout("COc1ccc(S(=O)(=O)N2Cc3ccc(Cl)cc3N(C(=O)c3ccccc3N3CCOCC3)CC2C(=O)NO)cc1 (stereo not drawn)")
0.79
>>> quantitative_readout("COc1ccc(S(=O)(=O)N2Cc3ccccc3N(C(=O)CN3CCN(C)CC3)CC2C(=O)NO)cc1 (stereo not drawn)")
2.27
>>> quantitative_readout("COc1ccc(S(=O)(=O)N2Cc3ccccc3N(Cc3ccccc3)CC2C(=O)NO)cc1 (stereo not drawn)")
1.71
>>> quantitative_readout("COc1ccc(S(=O)(=O)N2Cc3ccccc3N(C(=O)c3ccccc3)CC2C(=O)NO)cc1 (stereo not drawn)")
-0.25
>>> quantitative_readout("COc1ccc(S(=O)(=O)N2Cc3ccccc3N(C(=O)c3ccco3)CC2C(=O)NO)cc1 (stereo not drawn)")
0.15
>>> quantitative_readout("COc1ccc(S(=O)(=O)N2Cc3ccccc3N(C(C)=O)CC2C(=O)NO)cc1 (stereo not drawn)")
0.15
>>> quantitative_readout("COc1ccc(S(=O)(=O)N2Cc3ccccc3N(C(=O)c3ccc(OC)cc3OC)CC2C(=O)NO)cc1 (stereo not drawn)")
0.38
>>> quantitative_readout("COc1ccc(S(=O)(=O)N2Cc3ccccc3N(C(=O)c3ccc(-c4ccccc4)cc3)CC2C(=O)NO)cc1 (stereo not drawn)")
-0.15
>>> quantitative_readout("COc1ccc(S(=O)(=O)N2Cc3ccccc3N(S(C)(=O)=O)CC2C(=O)NO)cc1 (stereo not drawn)")
0.90
>>> quantitative_readout("COCCN1CC(C(=O)NO)N(S(=O)(=O)c2ccc(OC)cc2)Cc2ccccc21 (stereo not drawn)")
2.00
>>> quantitative_readout("COc1ccc(S(=O)(=O)N2Cc3ccc(Cl)cc3N(C(=O)c3ccc(OC(F)(F)F)cc3)CC2C(=O)NO)cc1 (stereo not drawn)")
0.11
>>> quantitative_readout("COc1ccc(S(=O)(=O)N2Cc3ccccc3N(C(=O)c3ccc(-n4ccc(C)n4)cc3Cl)CC2C(=O)NO)cc1 (stereo not drawn)")
0.53
>>> quantitative_readout("COc1ccc(S(=O)(=O)N2Cc3ccccc3N(C(=O)CCc3ccccc3)CC2C(=O)NO)cc1 (stereo not drawn)")
1.25
>>> quantitative_readout("COc1ccc(S(=O)(=O)N2Cc3ccccc3N(C(=O)c3cccc(C(F)(F)F)c3)CC2C(=O)NO)cc1 (stereo not drawn)")
0.71

Source listed as patent US6071903A.
